TARGET OR TEST SYSTEM: Human immunodeficiency virus type 1 reverse transcriptase (Human immunodeficiency virus 1, UniProt Q72547)
TEST PROTOCOL: HIV-1 reverse transcriptase inhibitory activity against Cys181 mutant using (poly)rC600*(oligo)dGT as template primer.
RECORDED METRIC: IC50 (nM)

{"COMPOUND": "CCC(=O)c1ccc(F)c(C2CC2NC(=O)Nc2ccc(Cl)cn2)c1O (stereo in doubt; 13)", "RECORDED METRIC": "IC50", "EXPERIMENTAL VALUE": 51}
{"COMPOUND": "COc1ccc(OC)c(CCNC(=O)Nc2ccc(Cl)cn2)c1F", "RECORDED METRIC": "IC50", "EXPERIMENTAL VALUE": 140}
{"COMPOUND": "CCC(=O)c1ccc(F)c(C2CC2NC(=O)Nc2ccc(Cl)cn2)c1O (stereo in doubt; 19)", "RECORDED METRIC": "IC50", "EXPERIMENTAL VALUE": 19}
{"COMPOUND": "CCC(=O)c1ccc(F)c(C2CC2NC(=O)Nc2ccc(Br)cn2)c1O (stereo in doubt; 17)", "RECORDED METRIC": "IC50", "EXPERIMENTAL VALUE": 16}
{"COMPOUND": "CC(=O)c1ccc(F)c(C2CC2NC(=O)Nc2ccc(C#N)cn2)c1O (stereo not given)", "RECORDED METRIC": "IC50", "EXPERIMENTAL VALUE": 16}

----------
TARGET OR TEST SYSTEM: Human immunodeficiency virus type 1 reverse transcriptase (Human immunodeficiency virus 1)
CONDITIONS USED: MT4
Description: Inhibitory activity against HIV-1 Asn 103 mutant in MT-4 cells.

{"COMPOUND": "COc1c(C(C)=O)ccc(F)c1CCNC(=O)Nc1ccc(Cl)cn1", "TARGET OR TEST SYSTEM": "Human immunodeficiency virus type 1 reverse transcriptase (Human immunodeficiency virus 1)", "UNIT": "nM", "OP": ">", "ED50": 5000}
{"COMPOUND": "CCC(=O)c1ccc(F)c(C2CC2NC(=O)Nc2ccc(Br)cn2)c1O (stereo in doubt; 17)", "TARGET OR TEST SYSTEM": "Human immunodeficiency virus type 1 reverse transcriptase (Human immunodeficiency virus 1)", "UNIT": "nM", "OP": "=", "ED50": 80}
{"COMPOUND": "CCOc1ccc(F)c(C2CC2NC(=O)Nc2cc(Cl)cnn2)c1Cl (stereo not given)", "TARGET OR TEST SYSTEM": "Human immunodeficiency virus type 1 reverse transcriptase (Human immunodeficiency virus 1)", "UNIT": "nM", "OP": ">", "ED50": 5000}
{"COMPOUND": "CC(=O)c1ccc(F)c(C2CC2NC(=O)Nc2ccc(C#N)cn2)c1O (stereo not given)", "TARGET OR TEST SYSTEM": "Human immunodeficiency virus type 1 reverse transcriptase (Human immunodeficiency virus 1)", "UNIT": "nM", "OP": "=", "ED50": 104}
{"COMPOUND": "CCC(=O)c1ccc(F)c(C2CC2NC(=O)Nc2ccc(Cl)cn2)c1O (stereo in doubt; 20)", "TARGET OR TEST SYSTEM": "Human immunodeficiency virus type 1 reverse transcriptase (Human immunodeficiency virus 1)", "UNIT": "nM", "OP": "=", "ED50": 470}

----------
TARGET OR TEST SYSTEM: Human immunodeficiency virus type 1 reverse transcriptase (Human immunodeficiency virus 1) (UniProt Q72547)
CONDITIONS USED: MT4
Here the recorded ED50 is given for each entry.

{"COMPOUND": "CC(=O)c1ccc(F)c(C2CC2NC(=O)Nc2ccc(Br)cn2)c1O (stereo not given)", "OP": "=", "ED50 / nM": 561}
{"COMPOUND": "COc1ccc(C(C)=O)c(F)c1CCNC(=O)Nc1ccc(Cl)cn1", "OP": "=", "ED50 / nM": 3280}
{"COMPOUND": "CCC(=O)c1ccc(F)c(C2CC2NC(=O)Nc2ccc(Cl)cn2)c1O (stereo in doubt; 13)", "OP": "=", "ED50 / nM": 350}
{"COMPOUND": "CN(C)c1ccc(F)c(CCNC(=O)Nc2ccc(Br)cn2)c1F", "OP": ">", "ED50 / nM": 20000}
{"COMPOUND": "CCC(=O)c1ccc(F)c(C2CC2NC(=O)Nc2ccc(Cl)cn2)c1O (stereo in doubt; 19)", "OP": "=", "ED50 / nM": 200}
